# cytotoxicity at 70.5 h per record follows
- procedureText: Human HepG2 cell viability assay in 384 well format
- Format: toxicity, cell-based
- Parameters: dose 125 nL, time 70.5 hour; concentration not given beside the values
- measurementContext: HepG2 cells, read-out: Inhibition
Your answer is read as %, so omit the unit and give the number.

// solved cases for cytotoxicity at 70.5 h follow
Cc1c(C(=O)NC2CCCC2)nnn1-c1ccccc1; -8.58
Cc1cccc(C(Nc2nccc(-c3ccc(C)nc3C)n2)C2CC2)n1 (configuration not stated); -3.12
O=C(CN1CCCC(c2ncc[nH]2)C1)NCC(F)(F)F (configuration not stated); 18.7

What does the record list as cytotoxicity at 70.5 h for O=C(NCCn1nc2ccccn2c1=O)c1cccc2[nH]ncc12 ?
-16.6

Endpoint output: cytotoxicity at 70.5 h of Cc1cnn(CC2CN(Cc3nc(N)c4ccccc4n3)CCO2)c1 (configuration not stated) . Value?
22.8

Endpoint output: cytotoxicity at 70.5 h of Cc1cccnc1NC(=O)C1CSc2ncc(C)c(=O)n2C1 (configuration not stated) . Value?
-2.04

# lookup: cytotoxicity at 70.5 h of COc1cc(OC)cc(C(=O)N(C)Cc2nnc3ccccn23)c1
-1.71

Please give the measured cytotoxicity at 70.5 h for this compound: Cc1ccccc1CNC(=O)Cc1c(C)nc2cc(=O)[nH]n2c1C
-2.94

Name the recorded cytotoxicity at 70.5 h for Cc1ccc2c(c1)c(Sc1ccccc1)c(CC(=O)O)n2C .
1.6

Tell me the measured cytotoxicity at 70.5 h of CC(C)(C)c1ccc(OCc2nc3c(c(=O)[nH]2)CCNC3)cc1 , please.
-7.79

Look at this compound and give its reported cytotoxicity at 70.5 h. COc1ccc2c(c1)CCN(Cc1cscn1)CC2
-0.57

What value of cytotoxicity at 70.5 h has been reported for the following compound? Cc1cccc(OCC(=O)N(Cc2ccncc2)C2CC2)c1
-0.457

# lookup: cytotoxicity at 70.5 h of CN(CCc1ccccc1)C(=O)c1cc(CN2CCC(O)CC2)on1
-5.34

Value lookup for cytotoxicity at 70.5 h; key = CN(C)CC(=O)N1CCC2(CC1)Cc1ccccc1CN(C)C2=O
23.3

Value lookup for cytotoxicity at 70.5 h; key = Cc1nc2c(c(=O)[nH]1)CN(Cc1ccc3c(c1)CCCN3C)CC2
1.02

Look at this compound and give its reported cytotoxicity at 70.5 h. O=C(CN1CCCC(c2noc(C3CC3)n2)C1)N1CCCC1 (configuration not stated)
4.7

Given the compound Cc1ccc(C(=O)N2CCOC(c3nc(C(C)(C)C)n[nH]3)C2)c(=O)[nH]1 (configuration not stated) , what is its reported cytotoxicity at 70.5 h?
0.0481

Entry CCCS(=O)(=O)N1CCN(CCOC)c2nc(C)ccc2C1 : reported cytotoxicity at 70.5 h = ?
-8.9

Consider the compound Cc1nsc(N2CCN(C(=O)Nc3cccc(C#N)c3)CC2)n1 and give its measured cytotoxicity at 70.5 h.
-0.0722

cytotoxicity at 70.5 h lookup needed for CN(CCCc1cnn(C)c1)C(=O)C1CCN(C(=O)C2CCC2)CC1 , thanks.
-10.7
